testedSystem: T1, human CD80-murine Ig fusion protein (human)
T1 construct: Bought (Ancell #510-820); also called hCD80-mIg; human CD80-murine IgG
T1 chain: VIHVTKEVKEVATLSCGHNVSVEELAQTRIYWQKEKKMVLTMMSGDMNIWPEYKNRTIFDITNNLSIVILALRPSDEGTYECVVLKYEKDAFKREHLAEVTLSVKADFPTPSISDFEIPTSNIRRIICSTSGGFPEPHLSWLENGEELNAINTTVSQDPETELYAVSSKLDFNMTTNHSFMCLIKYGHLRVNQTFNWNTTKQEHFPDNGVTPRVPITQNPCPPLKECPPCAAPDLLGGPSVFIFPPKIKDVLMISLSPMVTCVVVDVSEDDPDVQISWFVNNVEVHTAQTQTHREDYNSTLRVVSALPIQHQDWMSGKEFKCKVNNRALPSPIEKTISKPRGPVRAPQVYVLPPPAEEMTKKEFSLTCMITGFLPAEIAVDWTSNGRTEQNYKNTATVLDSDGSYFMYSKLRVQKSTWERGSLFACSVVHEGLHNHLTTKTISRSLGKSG
experimentSummary: SPR Biacore, hCD80-mIg captured
pKd: −log10 of the molar value.
Entries and their pKd

binder="D3-17-IgG2 (Fc fusion) MHVAQPAVVLASSRGIASFVCEYESPGKANEIRVTVLRQADSQVTEVCAMTYMKGDELTFLDDPSCTGTFSGNQVNLTIQGLRAMDTGLYICKVELMYPPPYYLGIGNGTQIYVIDPEPCPDSDERKCCVECPPCPAPPVAGPSVFLFPPKPKDTLMISRTPEVTCVVVDVSHEDPEVQFNWYVDGVEVHNAKTKPREEQFNSTFRVVSVLTVVHQDWLNGKEYKCKVSNKGLPAPIEKTISKTKGQPREPQVYTLPPSREEMTKNQVSLTCLVKGFYPSDIAVEWESNGQPENNYKTTPPMLDSDGSFFLYSKLTVDKSRWQQGNVFSCSVMHEALHNHYTQKSLSLSPG" endpointvalue="8.76 to 9.36"
binder="D3-65-IgG2 (Fc fusion) MHVAQPAVVLASSRGIASFVCEYASPGKANEVRVTVLRQADSQVTEVCAMTYMKGNELTFLDDPSCTGTFSGNQVNLTIQGLRAMDTGLYICKVELMYPPPYYEGIGNGTQIYVIDPEPCPDSDERKCCVECPPCPAPPVAGPSVFLFPPKPKDTLMISRTPEVTCVVVDVSHEDPEVQFNWYVDGVEVHNAKTKPREEQFNSTFRVVSVLTVVHQDWLNGKEYKCKVSNKGLPAPIEKTISKTKGQPREPQVYTLPPSREEMTKNQVSLTCLVKGFYPSDIAVEWESNGQPENNYKTTPPMLDSDGSFFLYSKLTVDKSRWQQGNVFSCSVMHEALHNHYTQKSLSLSPG" endpointvalue="> 9.36"
binder="D3-2-IgG2 (Fc fusion, also called D3-02-IgG2; D3-02) MHVAQPAVVLASSRGIASFVCEYESPGKATEIRVTVLRQAGSQVTEVCAMTYMKGDELTFLDDPSCTGTFSGNQVNLTIQGLRAADTGLYICKVELMYPPPYYLGFGNGTQIYVIDPEPCPDSDERKCCVECPPCPAPPVAGPSVFLFPPKPKDTLMISRTPEVTCVVVDVSHEDPEVQFNWYVDGVEVHNAKTKPREEQFNSTFRVVSVLTVVHQDWLNGKEYKCKVSNKGLPAPIEKTISKTKGQPREPQVYTLPPSREEMTKNQVSLTCLVKGFYPSDIAVEWESNGQPENNYKTTPPMLDSDGSFFLYSKLTVDKSRWQQGNVFSCSVMHEALHNHYTQKSLSLSPG" endpointvalue="8.76 to 9.36"

pKd reading for D3-7-IgG2 (Fc fusion, also called D3-07) MHVAQPAVVLASSRGIASFVCEYESPGKANEIRVTVLRQAGSQVTEVCAMTYMKGNELTFLDDPSCTGTFSGNQVNLTIQGLRAADTGLYICKVELMYPPPYYLGFGNGTQIYVIDPEPCPDSDERKCCVECPPCPAPPVAGPSVFLFPPKPKDTLMISRTPEVTCVVVDVSHEDPEVQFNWYVDGVEVHNAKTKPREEQFNSTFRVVSVLTVVHQDWLNGKEYKCKVSNKGLPAPIEKTISKTKGQPREPQVYTLPPSREEMTKNQVSLTCLVKGFYPSDIAVEWESNGQPENNYKTTPPMLDSDGSFFLYSKLTVDKSRWQQGNVFSCSVMHEALHNHYTQKSLSLSPG : 8.76 to 9.36
